- subject.of.test: Fibroblast growth factor-2 (human)
- assay.info: SPR
reported.metric: IC50 (mM)

Input line: Quick one: IC50 of Ac-ARPCG-NH2 [Ac-ARPCG-NH2] ?
Output line: 1

I = Ac-PARAC-NH2 [Ac-PARAC-NH2, scrambled pentapeptide]
II = Ac-ESLARPCAPGAPAE-NH2 [PTX3-(97-110) peptide Ac-…-NH2]
III = H-ARPCA-NH2 [H-ARPCA-NH2, non-acetylated pentapeptide]
Input line: Endpoint returns the given binders ordered by ascending IC50. Rank them, then answer with their labels in that order.
Output line: II, I, III
(II: 0.3 mM, I: 1 mM, III: 2 mM)
